- SYSTEM_TESTED: SARS-CoV-2 wild type spike protein (on reporter virus particles) (SARS-CoV-2, UniProt P0DTC2 14-1273)
- EXPERIMENT_DESCRIPTION: cell-based or functional assay
METRIC_NAME: PsV Neut Assay IC50 (nM)

# BINDER, MEASURE_UNIT, TEST_RESULT
rows = [
    ("A-17 (antibody, V domains shown) VH: EVQLQESGPGLVKPSETLSLTCTVSGGSISSYYWSWIRQPPGKGLEWIGYIYYSGSTNYNPSLKSRVTISVGTSKNQFSLKLSSVTAADTAVYYCAKSASDEPPPSTAAAGSHYYYYGMDVWGQGTTVTVSS VL: EIVMTQSPLSLPVTPGEPASISCRSSQSLLHSNGYNYLDWYLQKPGQSPHVLIYLGSNRASGVPDRFSGSGSGTDFTLKISRVEAEDVGVYYCMQALQTPNTFGQGTKLEIK", "nM", 0.66),
    ("A-12 (antibody, V domains shown) VH: EVQLLESGGGLVQPGGSLRLSCAVSGLTVSSNYMSWVRQAPGKGLEWVSLIYSGGSTYYADSVKGRFTISRDNSKNTLYLQMNSLRAEDTAVYYCARGELGIPYGMDVWGQGTTVTVSS VL: QSVLTQPPSVSAAPGQKVTISCSGGSSNVGDNFVSWYQQLPGTAPKLLIYDNNRRPSGIPDRFSGSKSGTSATLGITGLQTGDEADYYCGTWDSSLSAGVFGGGTKVTVL", "nM", 0.404),
]
